The measurements presented in this section are drawn from ChEMBL document CHEMBL3832761.

# Test system: Plasmodium falciparum
# protocol-text: Antimalarial activity: Asexual Blood Stage Plasmodium falciparum 3D7 IC50 (uM)
# Assay type: functional, organism-based
pIC50: −log10 of the molar value.

# test-smiles, pIC50
data = [
    ("Cc1cc(Cl)c(S(=O)(=O)N2CCCC2)cc1OCC(=O)NC1CCCCC1", 6.52),
    ("Cc1ccc(NC(=O)c2nc[nH]c2C(=O)Nc2nc3ccccc3[nH]2)c(C)c1", 6.44),
    ("CN1CCN(c2nccc3nc(-c4ccc(F)c(F)c4)[nH]c23)CC1", 5.95),
    ("CC(C)(CN)c1nc(-c2ccc(Cl)c(O)c2)c(-c2ccnc(N)n2)[nH]1", 6.39),
    ("O=C(NCCN1CCCC1)c1cc(NCCCCN2CCC(F)(F)CC2)nc2ccc(Cl)cc12", 8.00),
    ("COc1cccc(-c2cc3c(Nc4cccnc4)nccc3[nH]2)c1", 5.89),
    ("CN(C(=O)c1cc2c(-c3cncnc3)cccc2[nH]1)c1ccccc1", 6.14),
    ("CC(C)(C)c1cc(C(=O)N2CCN(c3nccnc3C#N)CC2)n(Cc2ccccc2)n1", 6.22),
    ("Cc1c[nH]c(CCNC(=O)c2cc(-c3ccc(Cl)cc3)cs2)n1", 6.09),
    ("OCCc1ccc(Nc2nccc(-c3nnc4ccccn34)n2)cc1", 5.97),
]
